Hello, the source for this data is patent US9597342B2, in case you need it.

Measured melting point accompanies every entry in the list below.
PROPERTY_MEASURED: melting point

>>> result_value("C#Cc1ccc2c(c1)C(c1ccccc1)=NCc1c(C(=O)OCCCOC(=O)c3ncn4c3CN(C)C(=O)c3cc(Cl)ccc3-4)ncn1-2")
"179 to 184 °C"
>>> result_value("C#Cc1ccc2c(c1)C(=O)N1CCCC1c1c(C(=O)N3CCN(C(=O)c4ncn5c4[C@@H]4CCCN4C(=O)c4cc(C#C)ccc4-5)CC3)ncn1-2 (stereo partly shown)")
"206 to 211 °C"
>>> result_value("C#Cc1ccc2c(c1)C(c1ccccc1F)=N[C@@H](C)c1c(C(=O)OCCCCCOC(=O)c3ncn4c3[C@H](C)N=C(c3ccccc3F)c3cc(C#C)ccc3-4)ncn1-2")
"150 to 155 °C"
>>> result_value("C#Cc1ccc2c(c1)C(=O)N1CCCC1c1c(C(=O)OCCCOC(=O)c3ncn4c3CN(C)C(=O)c3cc(Cl)ccc3-4)ncn1-2 (stereo not shown)")
"174 to 176 °C"
